- system: T1, FZD9 cysteine-rich domain (CRD), MYC-tagged and GPI-anchored on CHO cells (human, UniProt O00144 35-161, GPI anchor)
- T1 construct: also called FZD9 CRD; CHO-myc-FZDGPI; not shown: MYC tag and GPI anchor signal
- T1 sequence: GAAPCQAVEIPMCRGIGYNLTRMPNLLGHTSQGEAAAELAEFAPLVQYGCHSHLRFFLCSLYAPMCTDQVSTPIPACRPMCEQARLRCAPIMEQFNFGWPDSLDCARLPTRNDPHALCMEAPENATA
- run description: immunofluorescence, CHO-CRD cells
test readout: binding result

Fab-2901 (Fab, V domains shown, Fab; also called Fv-2901) VH: EVQLVESGGGLVQPGGSLRLSCAASGFNISYSYMHWVRQAPGKGLEWVASIYSYSSYTYYADSVKGRFTISADTSKNTAYLQMNSLRAEDTAVYYCARSWYYWSPSSGMDYWGQGTLVTVSS VL: DIQMTQSPSSLSASVGDRVTITCRASQSVSSAVAWYQQKPGKAPKLLIYSASSLYSGVPSRFSGSRSGTDFTLTISSLQPEDFATYYCQQGGFLITFGQGTKVEIK	no binding
Fab-2936 (Fab, V domains shown, Fab; also called Fv-2936) VH: EVQLVESGGGLVQPGGSLRLSCAASGFNISYYYMHWVRQAPGKGLEWVASIYSSSGSTSYADSVKGRFTISADTSKNTAYLQMNSLRAEDTAVYYCARAAMDYWGQGTLVTVSS VL: DIQMTQSPSSLSASVGDRVTITCRASQSVSSAVAWYQQKPGKAPKLLIYSASSLYSGVPSRFSGSRSGTDFTLTISSLQPEDFATYYCQQWYAASLITFGQGTKVEIK	no binding
